# assay.system: T1, PUF4 RNA-binding domain (Saccharomyces cerevisiae, UniProt P25339 537-888)
# T1 sequence: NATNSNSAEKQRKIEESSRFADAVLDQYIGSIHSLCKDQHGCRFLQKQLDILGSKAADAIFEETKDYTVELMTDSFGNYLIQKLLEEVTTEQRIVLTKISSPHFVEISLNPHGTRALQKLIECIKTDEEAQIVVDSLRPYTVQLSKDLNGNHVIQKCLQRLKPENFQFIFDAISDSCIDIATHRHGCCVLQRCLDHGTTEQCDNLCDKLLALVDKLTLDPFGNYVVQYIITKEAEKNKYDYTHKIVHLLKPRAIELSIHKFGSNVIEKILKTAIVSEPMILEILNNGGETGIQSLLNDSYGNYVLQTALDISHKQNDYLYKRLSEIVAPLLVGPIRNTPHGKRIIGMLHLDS
# test.summary: Mg; RNA-MaP; 20 mM Na-HEPES pH 7.4, 30 mM KOAc, 0.75 mM MgCl2, 0.1% Tween-20, 5% glycerol, 0.1 mg/mL BSA, 2 mM DTT; 25 C; 0.0125-409.6 nM protein
# condition.label: tags: N-His6-TEV cleaved; C-SNAP kept, Cy3B-labelled; label: tethered on chip by stalled RNA polymerase
pKd: −log10 of the molar value.
Mark not satisfied for pKd values under 7, and satisfied for everything at or above.

binder	qualitative.label
Ie_S2_P4E.1_K4.1_C4.1_H4.1_A4.1_[+6TTT]_F4.1_T4.1 (ssRNA) RNA: UUUGAUUAAUAUGAUAUCGUUCUUUCUUGUAUAUUUUUAUUCUUUCUCGAUAUCAUAUUAAUCUUU	satisfied
Ib_S4_P3E.1_K3.1_C3.1_H3.1_[A4C]_A3.1_[T5A]_F3.1_T3.1 (ssRNA) RNA: UUUGACAACUGAUCGUUCUUUCUUGUCAAUAUUCUUUCUCGAUCAGUUGUCUUU	not satisfied
Ie_S4_P3E.2_K3.1_C3.2_H3.1_A3.1_F3.1_[+8T]_T3.2 (ssRNA) RNA: UUUGACAACUGAUCGUUCUUUCUCUUGUAUAUAUUAUUCUUUCUCGAUCAGUUGUCUUU	satisfied

Ask | Threshold query (pKd >= 7) on Ib_S4_P3E.1_K3.1_C3.1_H3.1_[T1G]_A3.1_[A6G]_F3.1_T3.1 (ssRNA) RNA: UUUGACAACUGAUCGUUCUUUCUGGUAUGUAUUCUUUCUCGAUCAGUUGUCUUU
Reply | not satisfied
